Target: T1, human MTP-2 expressed on HEK293 cells (human, UniProt Q8IU80 1-811)
T1 sequence: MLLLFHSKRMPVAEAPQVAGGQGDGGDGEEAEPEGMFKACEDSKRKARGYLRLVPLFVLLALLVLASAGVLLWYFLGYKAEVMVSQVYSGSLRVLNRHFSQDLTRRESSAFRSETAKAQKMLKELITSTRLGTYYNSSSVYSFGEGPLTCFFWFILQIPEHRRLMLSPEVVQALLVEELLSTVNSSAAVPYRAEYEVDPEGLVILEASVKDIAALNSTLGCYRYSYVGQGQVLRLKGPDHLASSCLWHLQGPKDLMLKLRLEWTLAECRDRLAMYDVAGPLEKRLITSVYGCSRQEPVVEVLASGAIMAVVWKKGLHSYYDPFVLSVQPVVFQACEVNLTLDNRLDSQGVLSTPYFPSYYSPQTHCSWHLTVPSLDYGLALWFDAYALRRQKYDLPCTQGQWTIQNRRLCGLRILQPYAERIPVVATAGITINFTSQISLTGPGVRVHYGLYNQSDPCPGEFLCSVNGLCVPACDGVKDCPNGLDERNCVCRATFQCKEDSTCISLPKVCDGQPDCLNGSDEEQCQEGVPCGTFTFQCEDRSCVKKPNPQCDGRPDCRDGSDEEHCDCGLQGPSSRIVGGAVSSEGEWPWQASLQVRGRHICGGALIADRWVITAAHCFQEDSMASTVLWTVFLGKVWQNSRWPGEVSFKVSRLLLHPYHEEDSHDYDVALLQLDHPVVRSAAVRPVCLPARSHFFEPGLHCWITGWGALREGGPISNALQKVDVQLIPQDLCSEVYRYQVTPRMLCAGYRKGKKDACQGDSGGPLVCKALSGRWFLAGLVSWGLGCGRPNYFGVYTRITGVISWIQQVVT
Assay: cell-based or functional assay
Note to self: Inhibition enzymatic activity human MTP2 on cells (IC50) under 0.8 nM means yes, ties and anything higher get no.

Here's what some known entries look like.
- binder: "NORI-019 (antibody, human IgG4 S228P, lambda, V domains shown) VH: QVQLVESGGGVVQPGRSLRLSCAASGFTFSNFDMHWVRQAPGKGLEWVAIISYDGSDKYYEDSVKGRFTISRDNSKNTLYLQMNSLRAEDTAIYYCAKDGYGSSLFDHWGQGTLVTVSS VL: QSVLTQPPSVSEAPRQRVTISCSGSSSNIGNNAVNWFQQLPGEVPKLLIYYDDLLPSGVSDRFSGSKSGTSASLAISGLQSEDEADYYCAVWDDSLNGVLFGGGTKLTVLG"
  classification: "yes"
- binder: "NORI-030 (antibody, human IgG4 S228P, lambda, V domains shown) VH: QVQLVESGGGVVQPGRSLRLSCAASGFTFSNFDMDWVRQAPGRGLEWVALISYDGSKKYYADSVKGRFTISRDNSKNTLYLQMNSLRGEDTAVYFCAKEGYGGYDGFDYWGQGTLVTVSS VL: QSVLTQPPSVSEAPRQRVTISCSGSTSNIGNNAVNWYQQLPGKAPKLLISYDYVVSSGVSDRFSGSKSGTSASLAISGLQSADEADYYCSTWDDGLNGVVFGGGTKLTVLG"
  classification: "yes"
- binder: "NORI-024 (antibody, human IgG4 S228P, lambda, V domains shown) VH: QVQLVQSGPELKKPGASVKVSCKASGYTFTNFGISWVRQAPGQGLEWMGWISAYSGFTNFAQKFQGRVSMTTDTSTSTVYMELKSLRSDDTAVYYCAREGYSNYEDWFDPWGQGTLVTVSS VL: SYELTQPPSVSVSPGQTARITCSGDALPKKYAYWYQQKSGQAPVLVIYEDSKRPSGIPERISGSNSGTMATLTISGAQVEDEADYYCYSTDSSGNHRVFGGGTKLTVLG"
  classification: "no"

Next binder, please.
API: query returns whether the binder falls strictly under 0.8 nM in Inhibition enzymatic activity human MTP2 on cells (IC50). Query: NORI-027 (antibody, human IgG4 S228P, lambda, V domains shown) VH: QVQLVQSGAELKKPGASVKVSCKASGYTFNNYGISWVRQAPGQGLEWMGWISAYSGYTNIAQKFQGRVTMTTDTSTNTVYMELGSLRSDDTAVYYCAREGYSNFEDWFDPWGQGTLVTVSS VL: SYELTQPPSVSVSPGQTARITCSGDELPKKYAYWYQQKSGQAPVLVIYEDSKRPSGIPERISGSNSGTMATLTISGAQVEDEADYYCYSTDSSGNHRVFGGGTKLTVLG
no
